src = the supplement of paper PMC12042874

Test: amyloid nucleation score (Sup35N fusion, yeast selection) (log enrichment); library NNK2; higher = more nucleation; inactive = no reads after selection;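 note: zero at mode of non-aggregating sequences after 7 days selection at 30°C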
# if value of amyloid nucleation score reaches -0.2, tag t; if it stays below, tag f

Is the recorded value of amyloid nucleation score equal to or greater than -0.2 for this substance? RTSSTR
t

Is the recorded value of amyloid nucleation score equal to or greater than -0.2 for this substance? VSEQSMQCGVKFRHGTPSMV
t

Is the recorded value of amyloid nucleation score equal to or greater than -0.2 for this substance? MCSPSQEVITYHSDFWNGQK
t

Is the recorded value of amyloid nucleation score equal to or greater than -0.2 for this substance? FCSSSVIYQKKLA
f

Is the recorded value of amyloid nucleation score equal to or greater than -0.2 for this substance? SFSPFVYG
f

Is the recorded value of amyloid nucleation score equal to or greater than -0.2 for this substance? LLTTEQ
t

Is the recorded value of amyloid nucleation score equal to or greater than -0.2 for this substance? NCTRSSVWNNVVCLESHPSY
t

---

Assay: amyloid nucleation score (Sup35N fusion, yeast selection) (log enrichment); library NNK1; higher = more nucleation; inactive = no reads after selection
# if value of amyloid nucleation score reaches 0.6, tag 1.0; if it stays below, tag 0.0

Is the recorded value of amyloid nucleation score equal to or greater than 0.6 for this substance? GDFSGSDVHLSFLF
0.0

Is the recorded value of amyloid nucleation score equal to or greater than 0.6 for this substance? FSQRMGICYNVREFCNEFRC
1.0

Is the recorded value of amyloid nucleation score equal to or greater than 0.6 for this substance? LFVGRGIAFVSFGPLALS
1.0

Is the recorded value of amyloid nucleation score equal to or greater than 0.6 for this substance? ISIQSLRLSSSSWNLTLHCG
1.0

Is the recorded value of amyloid nucleation score equal to or greater than 0.6 for this substance? VLWHGLVVRSGNVEIVRSMC
0.0

Is the recorded value of amyloid nucleation score equal to or greater than 0.6 for this substance? ILIRNIMCSGSVSLSNLGSG
0.0

Is the recorded value of amyloid nucleation score equal to or greater than 0.6 for this substance? SPRYQSVWEFVSFQDCTSRW
0.0

Is the recorded value of amyloid nucleation score equal to or greater than 0.6 for this substance? VAEAFTIGWGGNESSSVRSS
0.0

Is the recorded value of amyloid nucleation score equal to or greater than 0.6 for this substance? VWLGTEFFVSCLACMLVSVL
0.0

Is the recorded value of amyloid nucleation score equal to or greater than 0.6 for this substance? RNIPGFVETVINGSCGALLT
1.0

Is the recorded value of amyloid nucleation score equal to or greater than 0.6 for this substance? YELKSDNLFVRLF
0.0

Is the recorded value of amyloid nucleation score equal to or greater than 0.6 for this substance? SDLELTTLFF
0.0

Is the recorded value of amyloid nucleation score equal to or greater than 0.6 for this substance? SYGNCVRCSLMYKGKHMLNT
0.0

Is the recorded value of amyloid nucleation score equal to or greater than 0.6 for this substance? FNVAAVVGWMKRLIDRSRNT
1.0

Is the recorded value of amyloid nucleation score equal to or greater than 0.6 for this substance? YVPGTNILLIIGEICQVPTD
1.0

Is the recorded value of amyloid nucleation score equal to or greater than 0.6 for this substance? VPIMYNFGINDVGSVCDCTD
1.0

Is the recorded value of amyloid nucleation score equal to or greater than 0.6 for this substance? GPSLWLKTMVKGYAKTGLYR
0.0

Is the recorded value of amyloid nucleation score equal to or greater than 0.6 for this substance? PSVTVYIYNLSSIFYGIRDL
1.0

Is the recorded value of amyloid nucleation score equal to or greater than 0.6 for this substance? LVMTNIVLRSVKERVHRLLR
0.0

Is the recorded value of amyloid nucleation score equal to or greater than 0.6 for this substance? IRDRMLMCDGKRLNTLLEHI
0.0

Is the recorded value of amyloid nucleation score equal to or greater than 0.6 for this substance? VIIRRWHIVFCSRFMFPCNF
0.0

Is the recorded value of amyloid nucleation score equal to or greater than 0.6 for this substance? YTNLAT
0.0

Is the recorded value of amyloid nucleation score equal to or greater than 0.6 for this substance? ENLGGWAPTLCYRRT
0.0

Is the recorded value of amyloid nucleation score equal to or greater than 0.6 for this substance? RHIFIRGIVYCCVSTFRFPS
0.0

Is the recorded value of amyloid nucleation score equal to or greater than 0.6 for this substance? GERDACYPKSLD
0.0

Is the recorded value of amyloid nucleation score equal to or greater than 0.6 for this substance? SVIVLFTIRRSWRPHSFRES
1.0

Is the recorded value of amyloid nucleation score equal to or greater than 0.6 for this substance? RCMLGLLNFIESIHGGR
1.0

Is the recorded value of amyloid nucleation score equal to or greater than 0.6 for this substance? LVSMVWLPM
0.0

Is the recorded value of amyloid nucleation score equal to or greater than 0.6 for this substance? RVNYDVLVHLMPGLWVRTRL
0.0
